# target_system: SaPDF (Streptococcus agalactiae serotype III, UniProt Q8E378, S2A)
# Construct: the recombinant protein contains all residues of the 204 amino acids mature protein; made in house; host or cells: E. coli Rosetta 2(DE3)pLysS
# Sequence (Q8E378 whole entry S2A): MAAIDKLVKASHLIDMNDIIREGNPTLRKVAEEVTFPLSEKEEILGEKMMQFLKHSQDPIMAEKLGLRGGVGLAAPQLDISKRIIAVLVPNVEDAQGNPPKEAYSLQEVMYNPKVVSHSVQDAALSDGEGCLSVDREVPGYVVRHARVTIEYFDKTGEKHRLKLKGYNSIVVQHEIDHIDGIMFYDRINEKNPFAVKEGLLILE
# measurement_protocol: biochemical
# conditions: SaPDF KI, no pre-incubation, assay initiated by addition of enzyme; 40 nM SaPDF; 37 °C
Reported pKi values for the following molecules.
Would you please state pKi, meaning minus log10 of the concentration in mol/L, as a bare number?

Check out these entries, answers already filled in.
molecule: CCCCC(CC(=O)NO)c1nc(Cc2ccc3c(c2)OCO3)no1 (stereo not drawn)
attribute_measured: pKi
endpoint_result: 7.17
//
molecule: CCCCC(CC(=O)NO)c1nc(-c2ccc(C(F)(F)F)cc2)no1 (stereo not drawn)
attribute_measured: pKi
endpoint_result: 6.40
//
molecule: CCCCC(CC(=O)NO)c1nc(Cc2ccc(C(F)(F)F)cc2)no1 (stereo not drawn)
attribute_measured: pKi
endpoint_result: 7.12
//
molecule: O=C(Cc1cn(Cc2ccccc2)c2ccc(Br)cc12)NO
attribute_measured: pKi
endpoint_result: 6.55
//
molecule: O=C(Cc1c[nH]c2ccc(Br)cc12)NO
attribute_measured: pKi
endpoint_result: 7.21

Now look at this one.
Lab note: CC(C)(C)OC(=O)N[C@@H](Cc1ccccc1)CN(O)C=O gave pKi of 5.85

###

Reported MIC Ea294 values for the following compounds.
# System: E. aerogenes Ea294, Ea289 derivative AcrAB-
# measurement_protocol: MIC by microdilution, E. aerogenes Ea294
# Format: cell-based, Enterobacter aerogenes
# conditions: +PMBN at 1/5 of its MIC; average of three assays

compound: CCCCC[C@H](CC(=O)NO)C(=O)N[C@H](C(=O)N1CCC[C@H]1CO)C(C)C [Actinonin, actinonin, reference compound]
MIC Ea294: 4 µg/mL

Lab note: CCCC[C@H](CC(=O)NO)c1nc(Cc2ccc(OC(F)(F)F)cc2)no1 [AT013] gave MIC Ea294 of 16 µg/mL

Lab note: CCCC[C@H](CC(=O)NO)c1nc(Cc2coc3ccccc23)no1 [AT015] gave MIC Ea294 of 16 µg/mL

Lab note: O=C(C[C@@H](CC1CCCC1)c1nc(Cc2ccc3c(c2)OCO3)no1)NO [AT020] gave MIC Ea294 of 8 µg/mL

Lab note: O=C(N[C@H](CO)[C@H](O)c1ccc([N+](=O)[O-])cc1)C(Cl)Cl [Chloramphenicol, chloramphenicol, reference compound] gave MIC Ea294 of 4 µg/mL

Lab note: O=C(C[C@@H](CC1CCCC1)c1nc(Cc2coc3ccccc23)no1)NO [AT019] gave MIC Ea294 of 2 µg/mL

Lab note: CCCCC(CC(=O)NO)c1nc(-c2ccc(C(F)(F)F)cc2)no1 (stereo not drawn) [AT011] gave MIC Ea294 of 16 µg/mL

Lab note: O=C(O)c1cn(C2CC2)c2cc(N3CCNCC3)c(F)cc2c1=O [Ciprofloxacin, ciprofloxacin, reference compound] gave MIC Ea294 of 8 µg/mL

Lab note: CC(C)(O/N=C(\C(=O)N[C@@H]1C(=O)N2C(C(=O)[O-])=C(C[n+]3ccccc3)CS[C@H]12)c1csc(N)n1)C(=O)O [Ceftazidim, ceftazidime, reference compound] gave MIC Ea294 of 64 µg/mL

###

# target_system: EcPDF (Escherichia coli)
# Construct: made in house
# Sequence (P0A6K3 whole entry): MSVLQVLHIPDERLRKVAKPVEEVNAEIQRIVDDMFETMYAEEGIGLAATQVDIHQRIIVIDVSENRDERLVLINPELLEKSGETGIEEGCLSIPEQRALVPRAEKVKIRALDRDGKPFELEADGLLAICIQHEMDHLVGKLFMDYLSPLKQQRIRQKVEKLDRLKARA
# measurement_protocol: PDF inhibition, formate dehydrogenase-coupled spectrophotometric assay (EcPDF)
# Format: biochemical
Reported pIC50 values for the following compounds.
Would you please state pIC50, meaning minus log10 of the concentration in mol/L, as a bare number?

Lab entry: EcPDF (Escherichia coli) assay, compound CCCC[C@H](CC(=O)NO)c1nc(Cc2ccc(C(=O)O)cc2)no1 [AT021] , pIC50 = 7.12

Lab entry: EcPDF (Escherichia coli) assay, compound CC(C)(C)OC(=O)N[C@@H](Cc1ccccc1)CN(O)C=O [RAS358] , pIC50 = 6.96

Lab entry: EcPDF (Escherichia coli) assay, compound CCCCC(CC(=O)NO)c1nc(Cc2ccc(C(F)(F)F)cc2)no1 (stereo not drawn) [AT008] , pIC50 = 7.85

Lab entry: EcPDF (Escherichia coli) assay, compound CCCCC(CC(=O)NO)c1nc(-c2ccc(C(F)(F)F)cc2)no1 (stereo not drawn) [AT011] , pIC50 = 6.67

Lab entry: EcPDF (Escherichia coli) assay, compound O=C(Cc1cn(Cc2ccccc2)c2ccc(Br)cc12)NO [SMP195] , pIC50 = 7.77

Lab entry: EcPDF (Escherichia coli) assay, compound CCCC[C@H](CC(=O)NO)c1nc(Cc2ccc(OC(F)(F)F)cc2)no1 [AT013] , pIC50 = 7.11

Lab entry: EcPDF (Escherichia coli) assay, compound CCCCC(CC(=O)NO)c1nc(Cc2ccc(C)cc2)no1 (stereo not drawn) [AT012] , pIC50 = 7.57

###

E. coli AG100 data, read-out MIC

Check out these entries, answers already filled in.
compound: O=C(Cc1c[nH]c2ccc(Br)cc12)NO
target_system: E. coli AG100
attribute_measured: MIC
endpoint_result: > 64 µg/mL

compound: CCCCC(CC(=O)NO)c1nc(C(=O)OCC)co1 (centres unmarked)
target_system: E. coli AG100
attribute_measured: MIC
endpoint_result: > 64 µg/mL

compound: CCCCC[C@H](CC(=O)NO)C(=O)N[C@H](C(=O)N1CCC[C@H]1CO)C(C)C [Actinonin, actinonin, reference compound]
target_system: E. coli AG100
attribute_measured: MIC
endpoint_result: 128 µg/mL

compound: CCCC[C@H](CC(=O)NO)c1nc(Cc2ccc(OC(F)(F)F)cc2)no1
target_system: E. coli AG100
attribute_measured: MIC
endpoint_result: > 64 µg/mL

Now look at this one.
Lab entry: E. coli AG100 assay, compound CCCC[C@H](CC(=O)NO)c1nc(Cc2coc3ccccc23)no1 , MIC = > 64 µg/mL

###

# target_system: AtPDF1B (Arabidopsis thaliana)
# Construct: made in house
# Sequence (Q9FUZ2 83-273): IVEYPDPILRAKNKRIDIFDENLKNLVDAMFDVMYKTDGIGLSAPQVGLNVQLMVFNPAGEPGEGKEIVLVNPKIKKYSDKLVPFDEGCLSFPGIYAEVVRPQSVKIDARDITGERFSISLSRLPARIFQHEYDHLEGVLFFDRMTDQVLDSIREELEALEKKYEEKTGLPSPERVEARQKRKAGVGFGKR
# measurement_protocol: PDF inhibition, formate dehydrogenase-coupled spectrophotometric assay (AtPDF1B)
# Format: biochemical
# conditions: PDFI pre-incubated with enzyme 10 min at 37 °C, started by 2 mM Fo-Met-Ala-Ser; 100 nM AtPDF1B; read-out: AtPDF1B KI*app
attribute_measured: Ki (nM)
Use nM as the unit, but write only the number.

Check out these entries, answers already filled in.
compound: CCCCC(CC(=O)NO)c1nc(Cc2ccc(C(F)(F)F)cc2)no1 (stereo not drawn)
unit_string: nM
Ki: 666
--
compound: CCCCC(CC(=O)NO)c1nc(Cc2ccc(-c3ccccc3)cc2)no1 (stereo not drawn)
unit_string: nM
Ki: 909
--
compound: CCCCC[C@H](CC(=O)NO)C(=O)N[C@H](C(=O)N1CCC[C@H]1CO)C(C)C [Actinonin, actinonin, reference compound]
unit_string: nM
Ki: 3.5

Lab note: CCCCC(CC(=O)NO)c1nc(Cc2ccc(F)cc2)no1 (stereo not drawn) gave Ki of 53

Lab note: O=C(C[C@@H](CC1CCCC1)c1nc(Cc2ccc3c(c2)OCO3)no1)NO gave Ki of 123

Lab note: O=C(Cc1cn(Cc2ccccc2)c2ccc(Br)cc12)NO gave Ki of 833

Lab note: CCCC[C@H](CC(=O)NO)c1nc(Cc2coc3ccccc23)no1 gave Ki of 1100

Lab note: O=C(C[C@@H](CC1CCCC1)c1nc(Cc2coc3ccccc23)no1)NO gave Ki of 54

Lab note: CC(C)(C)OC(=O)N[C@@H](Cc1ccccc1)CN(O)C=O gave Ki of 400

Lab note: O=C(Cc1c[nH]c2ccc(Br)cc12)NO gave Ki of 400

###

# Test system: E. aerogenes Ea289, MDR strain
# measurement_protocol: MIC by microdilution, E. aerogenes Ea289
# Assay type: cell-based, Enterobacter aerogenes
# conditions: Klebsiella aerogenes, 18 h, read-out: MIC Ea289
# Description: Two E. coli strains, one B. subtilis strain, one S. aureus strain, one E. faecalis strain, one S. agalactiae strain and three Enterobacter aerogenes strains previously described were used. Briefly, AG100 was an E. coli wild type strain and AG100A its acrAB^- derivative. […] MIC values of antibiotics were determined by the microdilution method in liquid MH media in microplates in the absence or presence of chemosensitizers/modulators (e.g. PMBN, PAβN), as previously described. […]
attribute_measured: MIC

Check out these entries, answers already filled in.
compound: O=C(C[C@@H](CC1CCCC1)c1nc(Cc2coc3ccccc23)no1)NO [AT019]
endpoint_result: > 128 µg/mL
--
compound: CCCC[C@H](CC(=O)NO)c1nc(Cc2ccc(OC(F)(F)F)cc2)no1 [AT013]
endpoint_result: > 128 µg/mL
--
compound: CCCC[C@H](CC(=O)NO)c1nc(Cc2coc3ccccc23)no1 [AT015]
endpoint_result: > 128 µg/mL
--
compound: O=C(O)c1cn(C2CC2)c2cc(N3CCNCC3)c(F)cc2c1=O [Ciprofloxacin, ciprofloxacin, reference compound]
endpoint_result: 64 µg/mL
--
compound: CCCCC(CC(=O)NO)c1nc(-c2ccc(C(F)(F)F)cc2)no1 (stereo not drawn) [AT011]
endpoint_result: > 128 µg/mL
--
compound: CCCCC[C@H](CC(=O)NO)C(=O)N[C@H](C(=O)N1CCC[C@H]1CO)C(C)C [Actinonin, actinonin, reference compound]
endpoint_result: > 64 µg/mL
--
compound: O=C(N[C@H](CO)[C@H](O)c1ccc([N+](=O)[O-])cc1)C(Cl)Cl [Chloramphenicol, chloramphenicol, reference compound]
endpoint_result: > 128 µg/mL
--
compound: O=C(C[C@@H](CC1CCCC1)c1nc(Cc2ccc3c(c2)OCO3)no1)NO [AT020]
endpoint_result: > 128 µg/mL

Lab entry: E. aerogenes Ea289, MDR strain assay, compound CC(C)(O/N=C(\C(=O)N[C@@H]1C(=O)N2C(C(=O)[O-])=C(C[n+]3ccccc3)CS[C@H]12)c1csc(N)n1)C(=O)O [Ceftazidim, ceftazidime, reference compound] , MIC = > 128 µg/mL

Measured values drawn from paper PMC5071857 for this set.
